Biological target: T1, human TF on cells (MDA-MB-231, BxPC-3 and other tumor cells with high TF expression) (human, UniProt P13726 33-295)
T1 construct: whole, on cells; Endogenous expression on tumor cell lines; also called cell surface TF
Assay: flow cytometry on MDA-MB-231 cells, antibody at 10 µg/mL
Each item that follows carries a reported MFI.

{"BINDER": "TF-mAb-H47 (antibody, V domains shown) VH: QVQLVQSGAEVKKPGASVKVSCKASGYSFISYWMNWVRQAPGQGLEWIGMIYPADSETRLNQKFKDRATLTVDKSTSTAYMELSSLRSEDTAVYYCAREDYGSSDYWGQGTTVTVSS VL: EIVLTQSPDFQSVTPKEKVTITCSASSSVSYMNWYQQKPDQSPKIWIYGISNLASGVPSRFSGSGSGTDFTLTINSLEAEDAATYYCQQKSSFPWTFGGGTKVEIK", "MFI / MFI": 3150}
{"BINDER": "TF-mAb-H48 (antibody, V domains shown) VH: QVQLVQSGSELKKPGASVKVSCKASGYSFISYWMNWVRQAPGQGLEWIGMIYPADSETRLNQKFKDRAVLSVDKSVSTAYLQICSLKAEDTAVYYCAREDYGSSDYWGQGTTVTVSS VL: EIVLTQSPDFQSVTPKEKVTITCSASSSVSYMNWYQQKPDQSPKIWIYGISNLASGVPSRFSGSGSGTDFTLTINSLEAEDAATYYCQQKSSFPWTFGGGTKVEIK", "MFI / MFI": 2900}
{"BINDER": "TF-mAb-Ch (antibody, V domains shown, Variable regions of TF-mAb-SC1 cloned onto human IgG1 heavy chain constant region and human kappa constant region; also called human-mouse chimeric antibody) VH: QVQLQQPGAELVRPGASVKLSCKASGYSFISYWMNWVKQRPGQGLEWIGMIYPADSETRLNQKFKDKATLTVDKSSSTAYMQLSSPTSEDSAVYYCAREDYGSSDYWGQGTTLTVSS VL: EILLTQSPAIIAASPGEKVTITCSASSSVSYMNWYLQKPGSSPKIWIYGISNLASGVPARFSGSGSGTSFSFTINSMETEDVATYYCQQKSSFPWTFGGGTKLEIK", "MFI / MFI": 3540}
